tgt: T1, in house made human PD-1-Fc protein (human, biotin-labeled (sites not given))
T1 construct: also called biotin-labeled human PD-1-Fc
assayProcedure: blocking FACS: biotin human PD-1-Fc + antibody on GS-C2/PD-L1 cells (competitor: cell-surface human PD-L1)
Method: GS-C2/PDL1 cells were harvested from cell culture flasks at the log phase, washed twice and re-suspended in PBS containing 2% v/v Fetal Bovine Serum (FACS buffer). GS-C2/PD-L1 cells, 0.6×10⁵ cells per welt, were incubated in 96 well-plates with 100 the antibody/PD1-Fc mixture for 40 minutes at 4° C. […] Fluorescence was measured using a Becton Dickinson FACS Canto II-HTS equipment. Data was analyzed using Graphpad Prism software and IC₅₀ values were reported.
Assignment: determine reported pIC50 for the given binders.
A value of pIC50 is the negative decimal logarithm of a concentration given in moles per litre.

What measured pIC50 goes with mouse anti-PD-1 monoclonal antibody E1A9C8A7 (antibody, V domains shown, Hybridoma-derived mouse mAb purified on Protein A; also called Mouse E1A9C8A7) VH: QVQLQQSGAEVVRPGVSVRISCKGSGYTFSDYVMHWMKQSHGESLEWIGVISTYHIPAVYNQKFKGKATMTVDKSSSTVYLELARLTSEDSAIYYCAREVYGDSYYFDVWGAGTTVTVSS VL: DVLMTQIPLSLPVSLGDQVSISCRSSQSIVHSNGNTYLEWYLQKPGQSPKLLIYKVSNRFSGVPDRFSGSGSGTDFTLKISRVEAEDLGVYYCFQGSHVPYTFGGGTKLEIK ?
9.38

What measured pIC50 goes with humanized antibody huE1A9C8A7-V8 (antibody, human IgG4 S228P, kappa, V domains shown, Human IgG4/kappa) VH: QVQLVQSGAEVVKPGASVKISCKASGYTFTDYVMHWVRQAPGQSLEWMGVISTYHIPAVYNQKFKGKATMTVDTSTSTVYLELSSLRSEDTAVYYCAREVYGDSYYFDVWGQGTTVTVSS VL: DIVMTQTPLSLPVTPGEPASISCRSSQSIVHSNGNTYLEWYLQKPGQSPQLLIYKVSNRFSGVPDRFSGSGSGTDFTLKISRVEAEDVGVYYCFQGSHVPYTFGGGTKVEIKR ?
9.26

What measured pIC50 goes with Chimeric E1A9C8A7 antibody (antibody, human IgG4 S228P, kappa, V domains shown, also called chimeric antibody E1A9C8A7) VH: QVQLQQSGAEVVRPGVSVRISCKGSGYTFSDYVMHWMKQSHGESLEWIGVISTYHIPAVYNQKFKGKATMTVDKSSSTVYLELARLTSEDSAIYYCAREVYGDSYYFDVWGAGTTVTVSS VL: DVLMTQIPLSLPVSLGDQVSISCRSSQSIVHSNGNTYLEWYLQKPGQSPKLLIYKVSNRFSGVPDRFSGSGSGTDFTLKISRVEAEDLGVYYCFQGSHVPYTFGGGTKLEIKR ?
9.24

What measured pIC50 goes with Nivolumab (antibody, V domains shown) VH: QVQLVESGGGVVQPGRSLRLDCKASGITFSNSGMHWVRQAPGKGLEWVAVIWYDGSKRYYADSVKGRFTISRDNSKNTLFLQMNSLRAEDTAVYYCATNDDYWGQGTLVTVSS VL: EIVLTQSPATLSLSPGERATLSCRASQSVSSYLAWYQQKPGQAPRLLIYDASNRATGIPARFSGSGSGTDFTLTISSLEPEDFAVYYCQQSSNWPRTFGQGTKVEIK ?
9.28

What measured pIC50 goes with Pembrolizumab (antibody, V domains shown) VH: QVQLVQSGVEVKKPGASVKVSCKASGYTFTNYYMYWVRQAPGQGLEWMGGINPSNGGTNFNEKFKNRVTLTTDSSTTTAYMELKSLQFDDTAVYYCARRDYRFDMGFDYWGQGTTVTVSS VL: EIVLTQSPATLSLSPGERATLSCRASKGVSTSGYSYLHWYQQKPGQAPRLLIYLASYLESGVPARFSGSGSGTDFTLTISSLEPEDFAVYYCQHSRDLPLTFGGGTKVEIKR ?
9.31

Source: patent US20230331848A1
